// data source = ChEMBL document CHEMBL1201862

Provide the reported GI50 of each item.
Test system: SNB-78
Assay: NCI tumour cell line growth inhibition, 48 h
The source made the active and inactive calls. Cut-off read from the data, not from the text of the source: active = GI50 up to about 1.1 µM and inactive = higher.

// query Reported GI50 for CCOc1ccc(NC(=O)C2=C(C)NC(C)=C(C(=O)Nc3ccc(OCC)cc3)C2c2ccccc2)cc1 : what is it?
// result > 100 µM (inactive)

// query Param item: CC(=O)Nc1ccc(-c2nnc(SCC(=O)Nc3ccccc3Cl)o2)cc1
// result > 100 µM (inactive)

// query Query CC1(C)CCC[C@@]2(C)C1CCC1(C)C(CCc3ccoc3)/C(=C/OS(=O)(=O)O)CCC12 (stereo partly specified) next
// result 45.2 µM (inactive)

// query Entry to check: CC(=O)Oc1cc2c(cc1OC(C)=O)OCC(c1ccccc1)C2 (stereo unspecified)
// result 39.2 µM (inactive)

// query Thanks! And Cc1ccc(S(=O)(=O)SCc2ccccc2CSS(=O)(=O)c2ccc(C)cc2)cc1 ?
// result 20.1 µM (inactive)

// query Please do the same for CCOC(=O)C(=O)Nc1ccccc1C(F)(F)F as well.
// result > 100 µM (inactive)

// query How about this compound: CC(=O)c1cccc(N2COC(C)(C)c3nc4ccccc4n3C2)c1
// result > 100 µM (inactive)

// query Quick one: CC(C)(C)c1cc(CCC(=O)Nc2ccc(Cl)cc2)nc(NC#N)n1
// result > 100 µM (inactive)

// query Another compound to check: CN1CCN2c3ccccc3CC(C#N)(C#N)C2C1 (stereo unspecified)
// result > 100 µM (inactive)

// query Can you handle CCCn1c(SCC)c2cc3cc4ccccc4cc3cc2c1-c1nc(F)nc(F)n1 next?
// result > 100 µM (inactive)

// query C=C1CC2OC2(C(=O)O[C@H]2CCC3[C@@H]4CCC5=CC(=O)CC[C@]5(C)C4CC[C@@]32C)C1=O (stereo partly specified) ?
// result 8.26 µM (inactive)

---

Tested on: K562
Assay: NCI tumour cell line growth inhibition, 48 h
Activity calls are given as the source filed them. Rule as the data show it: active = GI50 up to about 1.1 µM and inactive = higher.
Response enum: 1 (yes) (active), 0 (no) (inactive)

// query Entry CC#CC#C/C=C1/O[C@]2(CCC(OC(C)=O)CO2)[C@@H]2O[C@H]12 (some centres undefined) : call = ?
// result 0 (no)

// query Repeat for the following compound: C=C(CN(C)C)C(=O)c1ccccc1
// result 0 (no)

// query Then this compound: O=C(O)/C(=C/c1ccccc1[N+](=O)[O-])c1ccccc1
// result 0 (no)

// query Quick one: CC(=O)OCC1OC(O[C@@H]2c3c(O)c4c(c(O)c3C3=C(NN(c5ccc([N+](=O)[O-])cc5[N+](=O)[O-])[Se]3=O)[C@@]2(C)O)C(=O)c2ccccc2C4=O)C(OC(C)=O)C(OC(C)=O)C1OC(C)=O (some centres undefined)
// result 1 (yes)

---

HCT-15 measurements of GI50, listed per entry.
Note: unit µM is implicit; provide only the numeric part.

// query Record lookup: for HCT-15, what GI50 belongs to O=C(/C=C\c1ccc(Cl)c(Cl)c1)c1ccc(Cl)cc1Cl ?
// result 4.15

// query Follow-up item: O=C1OC(OCC#CCOC2OC(=O)C(Cl)=C2Cl)C(Cl)=C1Cl (stereo unspecified)
// result 5.85

// query Another compound to check: COCOc1cc(OC)ccc1C=O
// result 36.4

// query Same read-out for [N-]=[N+]=Nc1c(C=O)c(=O)n(-c2ccccc2)c2ccccc12 ?
// result 18.4

---

Tested on: NCI/ADR-RES
Assay: NCI tumour cell line growth inhibition, 48 h
Calls of active or inactive are those of the source. No stated cut-off is given here; in the data, active = GI50 up to about 1.1 µM and inactive = higher.
Assign GI50 to each entry below.

// query Returns the measured GI50 for the input compound. Input: CSc1c(C(=O)Nc2ccc(C)cc2)c(N)n(N)c(=O)c1C#N
// result > 100 µM (inactive)

// query Cool, now COc1cc(Nc2c(C#N)[n+]([O-])c3ccccc3[n+]2[O-])cc(OC)c1OC
// result 17.3 µM (inactive)

// query Moving on to the next compound: O=C(Nc1cccc2nsnc12)c1cc2c(cc1Cl)Sc1nccn1S2(=O)=O
// result 17.7 µM (inactive)

// query Do the same for C/C(=N\c1ccc(N(C)C)cc1)c1ccccc1 please
// result 27 µM (inactive)

// query Param item: CC1(C)OCC(C2OC(On3nnc4ccc(Cl)cc43)C3OC(C)(C)OC23)O1 (configuration not stated)
// result > 100 µM (inactive)

// query Input Cn1c(=O)[nH]c2nncnc2c1=O
// result 217 µM (inactive)

// query Proceed to C=C(CN(C)C)C(=O)c1ccc(Oc2ccccc2)cc1
// result 6.75 µM (inactive)

// query Would you kindly repeat that for O=C(Nc1ccccc1F)c1c(O)nc2sccn2c1=O ?
// result > 10 µM (inactive)

// query Follow-up item: CCc1c(CNC2=NCCN2)c(CC)c(CNC2=NCCN2)c(CC)c1CNC1=NCCN1
// result > 100 µM (inactive)

// query // same read-out, input: CN(C)Cc1cc(C(=O)/C=C/c2ccc(/C=C/C(=O)c3cc(CN(C)C)c(O)c(CN(C)C)c3)cc2)cc(CN(C)C)c1O
// result > 100 µM (inactive)

// query Repeat with COc1cc(C(c2cccc3ccccc23)N2C(=O)CCC2C(=O)NCc2ccccc2)cc(OC)c1OC (configuration not stated)
// result > 100 µM (inactive)

// query Can you check Cc1ccc(S(=O)(=O)Oc2nc3ccccc3nc2OS(=O)(=O)c2ccc(C)cc2)cc1 next?
// result > 100 µM (inactive)

// query Again, but for O=C1NC(=O)C(F)(n2cc(F)c(=O)[nH]c2=O)C(O)N1 (configuration not stated)
// result > 10 µM (inactive)

// query Can you check CSc1nc(NC2OC(CO)C(O)C(O)C2O)c(N)c(=O)[nH]1 (configuration not stated) next?
// result > 100 µM (inactive)

// query Try Cc1ccc(/N=N/c2c(C)c(C#N)c(=S)n(C3OC(CO)C(O)C(O)C3O)c2C)cc1 (configuration not stated) next.
// result 30.5 µM (inactive)

// query Could you do the same for COC(=O)c1ccc(CCC2=CC(=O)C(Br)=CC2=O)cc1 , please?
// result 18.7 µM (inactive)

// query Could you do the same for O=C1C(Cl)=C(NCCO)C(=O)c2c(O)ccc(O)c21 , please?
// result 5.18 µM (inactive)

// query What would you report for O=C([O-])C(O)C(O)C(=O)O.[K+] (configuration not stated) [POTASSIUM HYDROGENTARTRATE] ?
// result > 100 µM (inactive)

// query Record: BrCCC[P+](c1ccccc1)(c1ccccc1)c1ccccc1
// result > 100 µM (inactive)

// query What do you get for C/C=C\C(CC(=O)NCCC1CN(C(=O)OCc2ccccc2)c2ccccc21)CC(=O)OC (configuration not stated) ?
// result > 100 µM (inactive)

// query Next compound up: NC1=CN2c3ccccc3N(CC(=O)N3CCOCC3)C2C=C1 (configuration not stated)
// result > 100 µM (inactive)

// query Follow-up item: NC(=O)C(=CN1C(=O)CC(=O)NC1=S)C(N)=O
// result > 100 µM (inactive)

---

I'd appreciate it if you could supply GI50 values for the items below.
Test system: Malme-3M
Assay: NCI tumour cell line growth inhibition, 48 h
Calls of active or inactive are those of the source. Rule as the data show it: active = GI50 up to about 1.1 µM and inactive = higher.

// query Query GI50 on Malme-3M for COc1cc(C2C(Cl)C(=O)N2NC(=O)c2ccc(N)cc2)cc(Br)c1O (stereo unspecified)
// result 14.5 µM (inactive)

// query What would you report for O=C1c2c(ccc3c2CCC3)CC12Cc1ccccc1C2 ?
// result 18.9 µM (inactive)

// query Another compound to look at: CCCCNc1c(CN)cnc2cc(Cl)ccc12
// result 19.2 µM (inactive)

// query Another compound to check: COC(=O)Cc1c([C@H]2[C@H](CC(=O)OC)c3ccccc3N2C(C)=O)[nH]c2ccccc12
// result > 100 µM (inactive)

// query Continue with CC(C)(c1ccc(C=O)o1)c1ccc(C(C)(C)c2ccc(C=O)o2)o1
// result > 100 µM (inactive)

// query Cool, now COc1cc(O)c2c(=O)c3ccccc3n(C)c2c1
// result > 100 µM (inactive)

// query What about O=C([O-])C(O)C(O)C(=O)O.[K+] (stereo unspecified) [POTASSIUM HYDROGENTARTRATE] ?
// result > 100 µM (inactive)

// query Likewise for CC(C)(C)C(=O)CC(=O)C(F)(F)C(F)(F)C(F)(F)F ?
// result 22.1 µM (inactive)

// query Also need COC(=O)/C=c1/c2ccccc2n2nc3ccccc3c12 , thanks.
// result 99.1 µM (inactive)

// query Same question for CNC(=O)SCC(N)C(=O)O (stereo unspecified) please.
// result > 100 µM (inactive)

// query Next compound up: O=C(Cc1ccccc1)NN1C(=O)C(Cl)C1c1ccccc1Cl (stereo unspecified)
// result > 100 µM (inactive)
